Target: Nuclear receptor ROR-gamma (Homo sapiens) (UniProt P51449)
Sequence (P51449 whole entry, looked up): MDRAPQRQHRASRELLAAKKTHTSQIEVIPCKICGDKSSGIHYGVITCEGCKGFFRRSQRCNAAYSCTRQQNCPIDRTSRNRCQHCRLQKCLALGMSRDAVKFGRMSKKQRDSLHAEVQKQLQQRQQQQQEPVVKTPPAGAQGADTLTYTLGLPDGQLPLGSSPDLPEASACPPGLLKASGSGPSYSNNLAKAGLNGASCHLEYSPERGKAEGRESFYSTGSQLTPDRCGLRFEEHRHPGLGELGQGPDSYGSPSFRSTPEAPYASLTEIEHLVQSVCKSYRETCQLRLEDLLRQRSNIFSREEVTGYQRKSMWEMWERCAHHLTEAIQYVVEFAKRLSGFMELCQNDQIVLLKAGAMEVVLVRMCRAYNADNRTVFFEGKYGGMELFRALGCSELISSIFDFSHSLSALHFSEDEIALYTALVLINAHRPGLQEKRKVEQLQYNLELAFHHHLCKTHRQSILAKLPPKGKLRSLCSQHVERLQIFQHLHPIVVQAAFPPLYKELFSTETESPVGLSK
Experiment: qHTS assay for small molecule antagonists of the retinoid-related orphan receptor gamma (ROR-gamma) signaling pathway (AID 651802); also: nearly all actives have a fitted effect of over 60% in size
Conditions: ROR-gamma antagonist cell reporter assay; series mostly up to 92.2 µM
Results filed as inconclusive are left out. Activity calls are given as the source filed them. Calls follow the shape of the dose curve; as a rule, active = well fitted inhibition curve with a large enough effect; inconclusive = small, poorly fitted or top-dose-only effect; inactive = no such curve, though single readings can be large or run the other way.
Outcome codes: T = active, F = inactive

MOLECULE: CC/C=C\C/C=C\C/C=C\CCCCCCCC(=O)O
SUBJECT_OF_TEST: Nuclear receptor ROR-gamma (Homo sapiens) (UniProt P51449)
CATEGORY_LABEL: F
//
MOLECULE: CCOC(C)OCC
SUBJECT_OF_TEST: Nuclear receptor ROR-gamma (Homo sapiens) (UniProt P51449)
CATEGORY_LABEL: F
//
MOLECULE: CO/N=C(/C(=O)N[C@@H]1C(=O)N2C(C(=O)O)=C(COC(N)=O)CS[C@H]12)c1ccco1
SUBJECT_OF_TEST: Nuclear receptor ROR-gamma (Homo sapiens) (UniProt P51449)
CATEGORY_LABEL: F
//
MOLECULE: CCCCC
SUBJECT_OF_TEST: Nuclear receptor ROR-gamma (Homo sapiens) (UniProt P51449)
CATEGORY_LABEL: F
//
MOLECULE: Nc1ccc(N=Nc2ccccc2)c(N)n1
SUBJECT_OF_TEST: Nuclear receptor ROR-gamma (Homo sapiens) (UniProt P51449)
CATEGORY_LABEL: F
//
MOLECULE: CC[C@H]1OC(=O)[C@H](C)[C@@H](O[C@H]2C[C@@](C)(OC)[C@@H](O)[C@H](C)O2)[C@H](C)[C@@H](O[C@@H]2O[C@H](C)C[C@H](N(C)C)[C@H]2O)[C@](C)(O)C[C@@H](C)CN(C)[C@H](C)[C@@H](O)[C@]1(C)O
SUBJECT_OF_TEST: Nuclear receptor ROR-gamma (Homo sapiens) (UniProt P51449)
CATEGORY_LABEL: F
//
MOLECULE: CC1=CC(=O)NS(=O)(=O)O1
SUBJECT_OF_TEST: Nuclear receptor ROR-gamma (Homo sapiens) (UniProt P51449)
CATEGORY_LABEL: F
//
MOLECULE: Oc1cccc(O)c1O
SUBJECT_OF_TEST: Nuclear receptor ROR-gamma (Homo sapiens) (UniProt P51449)
CATEGORY_LABEL: F
//
MOLECULE: C[C@H]1O[C@@H](O[C@H]2[C@@H](O)C[C@H](O[C@H]3[C@@H](O)C[C@H](O[C@H]4CC[C@@]5(C)[C@H](CC[C@@H]6[C@@H]5C[C@@H](O)[C@]5(C)[C@@H](C7=CC(=O)OC7)CC[C@]65O)C4)O[C@@H]3C)O[C@@H]2C)C[C@H](O)[C@@H]1O
SUBJECT_OF_TEST: Nuclear receptor ROR-gamma (Homo sapiens) (UniProt P51449)
CATEGORY_LABEL: T
//
MOLECULE: Nc1ncnc2c1ncn2[C@H]1CC[C@@H](CO)O1
SUBJECT_OF_TEST: Nuclear receptor ROR-gamma (Homo sapiens) (UniProt P51449)
CATEGORY_LABEL: F
//
MOLECULE: NC(N)=O
SUBJECT_OF_TEST: Nuclear receptor ROR-gamma (Homo sapiens) (UniProt P51449)
CATEGORY_LABEL: F
//
MOLECULE: COC(=O)c1ccccc1O
SUBJECT_OF_TEST: Nuclear receptor ROR-gamma (Homo sapiens) (UniProt P51449)
CATEGORY_LABEL: F
//
MOLECULE: OCl
SUBJECT_OF_TEST: Nuclear receptor ROR-gamma (Homo sapiens) (UniProt P51449)
CATEGORY_LABEL: F
//
MOLECULE: CC1=CCC2CC1C2(C)C (stereo not drawn)
SUBJECT_OF_TEST: Nuclear receptor ROR-gamma (Homo sapiens) (UniProt P51449)
CATEGORY_LABEL: F
//
MOLECULE: O=P(O)(O)O
SUBJECT_OF_TEST: Nuclear receptor ROR-gamma (Homo sapiens) (UniProt P51449)
CATEGORY_LABEL: F
//
MOLECULE: OB(O)O
SUBJECT_OF_TEST: Nuclear receptor ROR-gamma (Homo sapiens) (UniProt P51449)
CATEGORY_LABEL: F
//
MOLECULE: OCc1ccccc1
SUBJECT_OF_TEST: Nuclear receptor ROR-gamma (Homo sapiens) (UniProt P51449)
CATEGORY_LABEL: F
//
MOLECULE: CC(C)(C)CC(C)(C)c1ccc(OCCO)cc1
SUBJECT_OF_TEST: Nuclear receptor ROR-gamma (Homo sapiens) (UniProt P51449)
CATEGORY_LABEL: T
//
MOLECULE: OCC(O)CO
SUBJECT_OF_TEST: Nuclear receptor ROR-gamma (Homo sapiens) (UniProt P51449)
CATEGORY_LABEL: F
//
MOLECULE: OC[C@H]1O[C@@H]2O[C@H]3[C@H](O)[C@@H](O)[C@@H](O[C@H]4[C@H](O)[C@@H](O)[C@@H](O[C@H]5[C@H](O)[C@@H](O)[C@@H](O[C@H]6[C@H](O)[C@@H](O)[C@@H](O[C@H]7[C@H](O)[C@@H](O)[C@@H](O[C@H]1[C@H](O)[C@H]2O)O[C@@H]7CO)O[C@@H]6CO)O[C@@H]5CO)O[C@@H]4CO)O[C@@H]3CO
SUBJECT_OF_TEST: Nuclear receptor ROR-gamma (Homo sapiens) (UniProt P51449)
CATEGORY_LABEL: F
//
MOLECULE: Nc1nccs1
SUBJECT_OF_TEST: Nuclear receptor ROR-gamma (Homo sapiens) (UniProt P51449)
CATEGORY_LABEL: F
//
MOLECULE: c1ccc2ccccc2c1
SUBJECT_OF_TEST: Nuclear receptor ROR-gamma (Homo sapiens) (UniProt P51449)
CATEGORY_LABEL: F
//
MOLECULE: Cc1ncc[nH]1
SUBJECT_OF_TEST: Nuclear receptor ROR-gamma (Homo sapiens) (UniProt P51449)
CATEGORY_LABEL: F

The values you see were collected from PubChem BioAssay (NCATS).
